These entries and their values trace back to patent US12496304B2.

tested.target: glucocorticoid receptor (Homo sapiens)
settings: 10 nm, 45 minutes at 37° C.
experimental.endpoint: localization of the glucocorticoid receptor

{"compound": "C[C@H](NC(=O)C(C)(F)F)[C@H](Oc1ccc2c(cnn2-c2cccc(C(=O)NC3CCOC3)c2)c1)c1ccc2c(c1)OCCO2 (stereo partly shown)", "result": "N"}
{"compound": "CCOC[C@]12Cc3cnn(-c4ccc(F)cc4)c3C=C1CCN(S(=O)(=O)c1ccc(C(F)(F)F)cc1)C2", "result": "N"}
{"compound": "Cc1ccc2c(NC[C@](O)(CC(C)(C)c3cc(F)cc4c3OCC4)C(F)(F)F)cccc2n1", "result": "N"}
{"compound": "CC(C)(C[C@@](O)(Cc1cc2ccncc2[nH]1)C(F)(F)F)c1cc(F)ccc1O", "result": "N"}

====

tested.target: UniProt P04150
settings: 100 nM, 45 minutes at 37° C.
experimental.endpoint: localization of the glucocorticoid receptor

{"compound": "CC(C)(C[C@@](O)(Cc1cc2ccncc2[nH]1)C(F)(F)F)c1cc(F)ccc1O", "result": "N"}
{"compound": "CCOC[C@]12Cc3cnn(-c4ccc(F)cc4)c3C=C1CCN(S(=O)(=O)c1ccc(C(F)(F)F)cc1)C2", "result": "N"}
{"compound": "C[C@H](NC(=O)C(C)(F)F)[C@H](Oc1ccc2c(cnn2-c2cccc(C(=O)NC3CCOC3)c2)c1)c1ccc2c(c1)OCCO2 (stereo partly shown)", "result": "N"}
{"compound": "Cc1ccc2c(NC[C@](O)(CC(C)(C)c3cc(F)cc4c3OCC4)C(F)(F)F)cccc2n1", "result": "N"}

====

tested.target: glucocorticoid receptor (Homo sapiens, UniProt P04150)
Sequence (P04150 1-777): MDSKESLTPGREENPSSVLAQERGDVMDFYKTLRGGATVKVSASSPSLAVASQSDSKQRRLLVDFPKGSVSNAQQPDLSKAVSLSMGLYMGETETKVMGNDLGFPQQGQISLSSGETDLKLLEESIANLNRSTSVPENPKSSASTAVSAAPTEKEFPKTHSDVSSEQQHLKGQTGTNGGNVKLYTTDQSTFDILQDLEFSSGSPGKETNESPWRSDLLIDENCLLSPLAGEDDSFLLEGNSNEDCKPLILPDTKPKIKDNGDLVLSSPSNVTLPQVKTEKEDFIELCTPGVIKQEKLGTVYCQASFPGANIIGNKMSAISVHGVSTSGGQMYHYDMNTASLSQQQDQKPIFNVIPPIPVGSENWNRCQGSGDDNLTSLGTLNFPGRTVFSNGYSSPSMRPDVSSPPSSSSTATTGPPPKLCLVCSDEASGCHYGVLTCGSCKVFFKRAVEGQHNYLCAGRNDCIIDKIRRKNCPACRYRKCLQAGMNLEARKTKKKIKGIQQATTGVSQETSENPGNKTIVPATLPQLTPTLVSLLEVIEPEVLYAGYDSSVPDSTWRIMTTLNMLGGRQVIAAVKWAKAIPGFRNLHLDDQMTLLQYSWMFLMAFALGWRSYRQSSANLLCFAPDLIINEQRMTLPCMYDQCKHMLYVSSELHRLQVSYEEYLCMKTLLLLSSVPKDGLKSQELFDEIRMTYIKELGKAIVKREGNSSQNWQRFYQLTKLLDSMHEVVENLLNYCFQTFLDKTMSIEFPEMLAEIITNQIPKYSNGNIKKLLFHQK
settings: 1 nM, 45 minutes at 37° C.
experimental.endpoint: localization of the glucocorticoid receptor

{"molecule": "CC(C)(C[C@@](O)(Cc1cc2ccncc2[nH]1)C(F)(F)F)c1cc(F)ccc1O", "result": "N"}
{"molecule": "C[C@H](NC(=O)C(C)(F)F)[C@H](Oc1ccc2c(cnn2-c2cccc(C(=O)NC3CCOC3)c2)c1)c1ccc2c(c1)OCCO2 (stereo partly shown)", "result": "N"}
{"molecule": "Cc1ccc2c(NC[C@](O)(CC(C)(C)c3cc(F)cc4c3OCC4)C(F)(F)F)cccc2n1", "result": "N"}
{"molecule": "CCOC[C@]12Cc3cnn(-c4ccc(F)cc4)c3C=C1CCN(S(=O)(=O)c1ccc(C(F)(F)F)cc1)C2", "result": "N/C"}
